test system: L02; test: Hepatoprotective activity against APAP-induced cell injury in human HL-7702 cells assessed as survival rate at 10 uM pre-incubated for 24 hrs before APAP addition and measured 6 hrs post APAP challenge by MTT assay (reference value: 59.13%); assay type: functional; conditions: read-out: Survival
Catalogue of compounds with associated viability at 10 µM
measure_name: viability at 10 µM (%)

>>> meas_value("CC1(C)CC[C@H]2CC[C@]3(C)C(=CC[C@@H]4[C@@]5(C)CC[C@H](O)C(C)(C)[C@@H]5CC[C@]43C)[C@@H]2C1")
71.6
>>> meas_value("CC1(C)CC[C@H]2[C@@H](O)C[C@]3(C)C(=CC[C@@H]4[C@@]5(C)CC[C@H](O)C(C)(C)[C@@H]5CC[C@]43C)[C@@H]2C1")
62.9
>>> meas_value("CC1(C)CC[C@H]2C(=O)C[C@]3(C)C(=CC[C@@H]4[C@@]5(C)CCC(=O)C(C)(C)[C@@H]5CC[C@]43C)[C@@H]2C1")
71.2
>>> meas_value("CC1(C)CC[C@]2(C(=O)O)CC[C@]3(C)C(=CC[C@@H]4[C@@]5(C)CC[C@H](O)C(C)(C)[C@@H]5CC[C@]43C)[C@@H]2C1")
68.5
>>> meas_value("CC1(C)CC[C@H]2[C@H](O)C[C@]3(C)C(=CC[C@@H]4[C@@]5(C)CC[C@H](O)C(C)(C)[C@@H]5CC[C@]43C)[C@@H]2C1")
65.5

----------
test system: L02; assay: Hepatoprotective activity against APAP-induced cell injury in human HL-7702 cells assessed as survival rate at 10 uM pre-incubated for 24 hrs before APAP addition and measured 6 hrs post APAP challenge by MTT assay (reference value: 59.13%); assay type: functional; conditions: read-out: Survival
Parameter viability at 10 µM: see the listing below.
measure_name: viability at 10 µM (%)

>>> meas_value("CC(=O)O[C@H]1CC[C@]2(C)[C@H]3CC=C4[C@@H]5CC(C)(C)CC[C@H]5C(=O)C[C@@]4(C)[C@]3(C)CC[C@H]2C1(C)C")
67.1
>>> meas_value("CC1(C)CC[C@H]2C(=O)C[C@]3(C)[C@@]4(O[C@@H]4C[C@@H]4[C@@]5(C)CC[C@H](O)C(C)(C)[C@@H]5CC[C@]43C)[C@@H]2C1")
65.7
